# measurementTarget: human CYP11B1 (Homo sapiens, UniProt P15538)
# Sequence (P15538 25-503): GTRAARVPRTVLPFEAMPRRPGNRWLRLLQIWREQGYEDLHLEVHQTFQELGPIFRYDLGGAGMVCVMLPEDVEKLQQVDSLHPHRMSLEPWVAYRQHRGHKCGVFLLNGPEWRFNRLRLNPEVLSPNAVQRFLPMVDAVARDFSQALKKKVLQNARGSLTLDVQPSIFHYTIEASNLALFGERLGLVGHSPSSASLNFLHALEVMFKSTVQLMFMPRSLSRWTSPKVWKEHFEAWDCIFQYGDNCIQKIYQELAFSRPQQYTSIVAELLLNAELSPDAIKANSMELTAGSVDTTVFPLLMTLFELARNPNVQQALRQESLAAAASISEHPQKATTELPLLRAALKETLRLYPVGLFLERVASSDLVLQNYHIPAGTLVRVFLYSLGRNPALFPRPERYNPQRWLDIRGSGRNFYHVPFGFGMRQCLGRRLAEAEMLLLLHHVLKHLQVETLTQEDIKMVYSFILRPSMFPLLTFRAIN
# procedureText: Inhibition of hCYP11B1 in transfected V79 cells
# conditionLabel: hamster V79 cells expressing human CYP11B1; substrate 11-deoxycortisol 200 nM
# Protocol: Genes of human CYP11B1 and rat NADPH-P450 reductase were transfected into hamster V79 cells using a lentivirus vector, and stably-expressing cell lines were selected by taking advantages of the associated puromycin-resistance gene. […] Subsequently, the substrate and product(s) were quantified using LC-MS/MS or HPLC at 260 nm, and the IC50 values were calculated according to inhibitory percentage.
pIC50: −log10 of the molar value.
Tag: MET if measured pIC50 is not below 7, NOT MET if it is.

N#Cc1ccc(-c2cncc3c2SCCN3S(=O)(=O)C2CN(S(=O)(=O)c3cccc(F)c3)C2)cc1 : MET

Now turn to the next molecule.
Ask: Answer whether pIC50 of N#Cc1ccc(-c2cncc3c2CCN3S(=O)(=O)c2cccnc2)cc1 is greater than or equal to 7.
Result: MET

---

This listing pairs molecules with measured log10 IC50.
# measurementTarget: UniProt P19099
# Sequence (P19099 25-503): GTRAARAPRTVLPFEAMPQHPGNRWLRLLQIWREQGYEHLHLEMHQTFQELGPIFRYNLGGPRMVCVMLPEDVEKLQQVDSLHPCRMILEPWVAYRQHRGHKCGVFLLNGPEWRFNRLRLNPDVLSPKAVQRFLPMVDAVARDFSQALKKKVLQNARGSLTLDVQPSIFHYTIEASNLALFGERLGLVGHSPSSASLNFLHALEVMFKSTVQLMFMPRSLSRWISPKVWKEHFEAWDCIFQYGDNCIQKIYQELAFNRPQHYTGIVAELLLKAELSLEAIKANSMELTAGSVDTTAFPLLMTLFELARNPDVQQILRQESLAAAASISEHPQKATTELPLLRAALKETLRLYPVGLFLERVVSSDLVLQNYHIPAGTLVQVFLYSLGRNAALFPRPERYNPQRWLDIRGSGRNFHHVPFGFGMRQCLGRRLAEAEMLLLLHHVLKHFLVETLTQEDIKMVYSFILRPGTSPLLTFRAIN
# procedureText: Inhibition of hCYP11B2 in transfected V79 cells
# conditionLabel: hamster V79 cells expressing human CYP11B2; substrate 11-deoxycorticosterone 200 nM
Heads up: the numbers are on a log10 scale; they represent IC50 in pM.

See these solved cases before continuing.
O=C(c1ccc(F)cc1)n1ccc2c(-c3ccc4nccn4c3)cncc21 : 2.78
COc1ccc(C(=O)N2CC(S(=O)(=O)N3CCOc4c(-c5ccc(C#N)cc5)cncc43)C2)cc1 : 3.48
N#Cc1ccc(-c2cncc3c2SCCN3S(=O)(=O)c2cccc3cccnc23)cc1 : 2.93
N#Cc1ccc(-c2cncc3c2SCCN3S(=O)(=O)c2ccccc2)cc1 : 2.00
CS(=O)(=O)N1CCOc2c(-c3ccc(C#N)cc3)cncc21 : 2.30

Noted for N#Cc1ccc(-c2cncc3c2ccn3S(=O)(=O)c2cccc([N+](=O)[O-])c2)cc1 : its log10 IC50 reads 2.48

Noted for COc1ccc(S(=O)(=O)N2CCSc3c(-c4ccc(F)c(Cl)c4)cncc32)cc1 : its log10 IC50 reads 2.23

---

This listing pairs compounds with measured IC50.
# measurementTarget: human CYP11B2 (Homo sapiens)
# Construct: expressed in transfected cells
# procedureText: Inhibition of hCYP11B2 in transfected V79 cells
# Type: cell-based
# conditionLabel: hamster V79 cells expressing human CYP11B2; substrate 11-deoxycorticosterone 200 nM
Entry rule: numbers only, all in nM.

See these solved cases before continuing.
N#Cc1ccc(-c2cncc3c2OCCN3C(=O)C2CN(Cc3ccc(F)cc3)C2)cc1 : 2.9
COc1cccc(CN2CC(S(=O)(=O)N3CCSc4c(-c5ccc(C#N)cc5)cncc43)C2)c1 : 0.9
N#Cc1ccc(-c2cncc3c2CCN3C(=O)Cc2ccc(Br)cc2)cc1 : 11
COc1ccc(S(=O)(=O)N2CCSc3c(-c4cccs4)cncc32)cc1 : 6
N#Cc1ccc(-c2cncc3c2ccn3S(=O)(=O)c2cccc(Cl)c2)cc1 : 0.1

// next entry
Tested on human CYP11B2 (Homo sapiens), the item O=C(c1ccccc1F)N1CCc2c(-c3ccoc3)cncc21 showed IC50 equal to 103

---

This listing pairs compounds with measured pIC50.
# measurementTarget: human CYP11B1 (Homo sapiens, UniProt P15538)
# Sequence (P15538 25-503): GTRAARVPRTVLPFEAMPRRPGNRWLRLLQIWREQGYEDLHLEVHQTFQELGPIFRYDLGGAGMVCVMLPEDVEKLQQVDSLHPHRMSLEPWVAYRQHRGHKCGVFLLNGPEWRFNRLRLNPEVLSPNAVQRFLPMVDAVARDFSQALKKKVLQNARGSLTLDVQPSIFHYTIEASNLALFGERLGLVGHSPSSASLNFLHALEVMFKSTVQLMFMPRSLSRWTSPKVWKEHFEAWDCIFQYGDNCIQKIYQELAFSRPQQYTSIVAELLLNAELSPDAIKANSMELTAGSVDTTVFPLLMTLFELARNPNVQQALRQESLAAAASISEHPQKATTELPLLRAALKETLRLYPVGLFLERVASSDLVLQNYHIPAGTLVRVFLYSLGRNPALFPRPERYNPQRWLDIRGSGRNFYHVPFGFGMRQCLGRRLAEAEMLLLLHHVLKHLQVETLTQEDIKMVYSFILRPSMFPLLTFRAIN
# procedureText: Inhibition of hCYP11B1 in transfected V79 cells
# conditionLabel: hamster V79 cells expressing human CYP11B1; substrate 11-deoxycortisol 200 nM
Note on pIC50: it is the negative log10 of concentration, concentration in mol/L.

See these solved cases before continuing.
N#Cc1ccc(-c2cncc3c2CCN3S(=O)(=O)c2ccc(C(F)(F)F)cc2)cc1 : 9.44
N#Cc1ccc(-c2cncc3c2CCN3S(=O)(=O)c2ccc(F)cc2)cc1 : 8.72
N#Cc1ccc(-c2cncc3c2ccn3S(=O)(=O)c2cccc(Cl)c2)cc1 : 9.70

Noted for N#Cc1ccc(-c2cncc3c2OCCN3C(=O)C2CN(S(=O)(=O)c3cccc(F)c3)C2)cc1 : its pIC50 reads 8.43

Noted for COc1ccc(S(=O)(=O)N2CCSc3c(-c4cn[nH]c4)cncc32)cc1 : its pIC50 reads 6.86

---

# measurementTarget: human CYP11B1 (Homo sapiens, UniProt P15538)
# procedureText: Inhibition of hCYP11B1 in transfected V79 cells
# conditionLabel: hamster V79 cells expressing human CYP11B1; substrate 11-deoxycortisol 200 nM
# strict inequality: IC50 < 600 nM yields MET, everything else yields NOT MET

As a guide, the following entries are already answered.
N#Cc1ccc(-c2cncc3c2SCCN3Cc2ccc(F)cc2)cc1 [S2] : NOT MET
N#Cc1ccc(-c2cncc3c2OCCN3C(=O)N2CC(Cc3cccc(F)c3)C2)cc1 [O136] : NOT MET
N#CCC(=O)N1CCOc2c(-c3ccc(C#N)cc3)cncc21 [O32] : NOT MET
N#Cc1ccc(-c2cncc3c2OCCN3C(=O)C2CN(S(=O)(=O)c3ccc(C#N)cc3)C2)cc1 [O75] : MET
Cc1ccccc1CC(=O)N1CCc2c(-c3ccc(C#N)cc3)cncc21 [C64] : MET

Ask: API: query returns whether the compound falls strictly under 600 nM in IC50. Query: Cc1cccc(S(=O)(=O)N2CCOc3c(-c4ccc(C#N)cc4)cncc32)c1 [O5]
Result: MET

Ask: API: query returns whether the compound falls strictly under 600 nM in IC50. Query: N#Cc1ccc(-c2cncc3c2ccn3C(=O)c2ccc(F)cc2)cc1 [E30]
Result: MET

Ask: API: query returns whether the compound falls strictly under 600 nM in IC50. Query: O=C1COc2ccc(S(=O)(=O)N3CCSc4c(-c5cc6cc(Cl)ccc6o5)cncc43)cc2N1 [S59]
Result: MET

Ask: API: query returns whether the compound falls strictly under 600 nM in IC50. Query: COc1cccc(C2=NOC(S(=O)(=O)N3CCOc4c(-c5ccc(C#N)cc5)cncc43)C2)c1 (stereo not shown) [O100]
Result: MET

Ask: API: query returns whether the compound falls strictly under 600 nM in IC50. Query: N#Cc1ccc(-c2cncc3c2OCCN3C(=O)Cc2cccc(F)c2)cc1 [O37]
Result: MET

Ask: API: query returns whether the compound falls strictly under 600 nM in IC50. Query: N#Cc1ccc(-c2cncc3c2CCN3C(=O)c2ccc(CBr)cc2)cc1 [C49]
Result: NOT MET

Ask: API: query returns whether the compound falls strictly under 600 nM in IC50. Query: N#Cc1ccc(-c2cncc3c2CCN3S(=O)(=O)c2cccc3ccccc23)cc1 [C18]
Result: MET

Ask: API: query returns whether the compound falls strictly under 600 nM in IC50. Query: N#Cc1ccc(-c2cncc3c2OCCN3C(=O)c2cccc(Cl)c2)cc1 [O29]
Result: NOT MET

Ask: API: query returns whether the compound falls strictly under 600 nM in IC50. Query: N#Cc1ccc(-c2cncc3c2OCCN3S(=O)(=O)C2CC(c3cccc(C#N)c3)=NO2)cc1 (stereo not shown) [O101]
Result: MET

Recorded values, source patent US20260092074A1.
